Molecular target: Estrogen receptor (Homo sapiens)
Test: ATG_ERa_TRANS: Attagene TRANS-FACTORIAL HepG2 Assay for human Estrogen Receptor alpha (ERa) (AID 2282970)
Settings: HepG2 Attagene TRANS ERa GAL4 reporter, mRNA
Records with an inconclusive call do not appear. The source made the active and inactive calls. How the source made its calls: active means hit-call score of the fitted dose curve at least 0.9, where 1 is the maximum; inconclusive means response in the unintended direction; inactive means score below 0.9.
Write down the outcome that applies. Available outcomes: 1 for active, -1 for inactive

1) CC(=O)C(Cl)C(=O)N(C)C (stereo not given) : -1
2) COP(=S)(OC)Oc1ccc(Sc2ccc(OP(=S)(OC)OC)cc2)cc1 : -1

input: # outcome recorded in this test, key = `CCCCCCCCC(=O)NCc1ccc(O)c(OC)c1`
output: -1

input: # outcome recorded in this test, key = `COc1ccc(C=O)cc1`
output: -1

----------
Read-out: serum amyloid A (SAA), SAA1 (gene 6288)
Experiment: BSK_CASM3C_SAA: BioMAP Diversity Plus: CASM3C Assay for serum amyloid A (SAA) Biomarker Activity (AID 2283049);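 further: SAA protein level quantified by ELISA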
Conditions: primary human coronary artery smooth muscle cells; actives raise or lower the signal
Active and inactive are the calls of the source. The calls were made as follows: active = hit-call score of the fitted dose curve at least 0.9, where 1 is the maximum; inactive = score below 0.9.
Write down the outcome that applies. Available outcomes: active, inactive

1. CC(C)(c1ccccc1)c1ccc(O)c(C(C)(C)c2ccccc2)c1 : active
2. NC(=O)O : inactive
3. ClC(Cl)=C(Cl)C(Cl)=C(Cl)Cl : inactive
4. CC(C)c1ccc(CO)cc1 : inactive

input: # outcome recorded in this test, key = CC12CC1(C)C(=O)N(c1cc(Cl)cc(Cl)c1)C2=O (configuration not stated)
output: inactive

input: # outcome recorded in this test, key = `O=C(O)C(Cl)(Cl)Cl`
output: inactive

input: # outcome recorded in this test, key = `CCOP(=S)(OCC)SCCS(=O)(=O)CC`
output: inactive

input: # outcome recorded in this test, key = `CC1(C)Cc2cccc(O)c2O1`
output: inactive

input: # outcome recorded in this test, key = CCCCC(CC)CO[N+](=O)[O-] (configuration not stated)
output: inactive

----------
Read-out: Glutamate-cysteine ligase catalytic (GCLC), GCLC (gene 2729)
Test: LTEA_HepaRG_GCLC: Life Technologies and Expression Analysis (LTEA) Assay for Glutamate-cysteine ligase catalytic (GCLC) using HepaRG (AID 2283498)
Settings: mRNA level, 48 h; actives raise or lower the signal
Active and inactive are the calls of the source. The calls were made as follows: active = hit-call score of the fitted dose curve at least 0.9, where 1 is the maximum; inactive = score below 0.9.
Write down the outcome that applies. Available outcomes: active, inactive

For orientation, consider the following solved cases.
1) CCC(C)(C)c1ccc(O)c(C(C)(C)CC)c1 : inactive
2) CC(=O)[O][Hg][c]1ccccc1 : active
3) O=C(O)C(F)(F)C(F)(F)C(F)(F)C(F)(F)C(F)(F)C(F)(F)F : inactive
4) Cc1ccccc1N : inactive
5) CC(C)(C)CC(C)(C)c1ccc(O)cc1 : inactive

input: # outcome recorded in this test, key = `O=C(O)C(F)(F)C(F)(F)C(F)(F)C(F)(F)C(F)(F)C(F)(F)C(F)(F)C(F)(F)C(F)(F)C(F)(F)F`
output: inactive

input: # outcome recorded in this test, key = `CCOP(=S)(OCC)SCSP(=S)(OCC)OCC`
output: active

input: # outcome recorded in this test, key = `CC(C)(C)c1cc(O)ccc1O`
output: inactive

input: # outcome recorded in this test, key = `C=C(C)C(=O)[O][Sn]([CH2]CCC)([CH2]CCC)[CH2]CCC`
output: active

----------
Experiment: ATG_Oct_MLP_CIS: Attagene CIS-FACTORIAL HepG2 Assay for human Octamer-Binding Transcription Factor (Oct) (AID 2282993)
Settings: HepG2 Attagene cis-factorial Oct reporter, mRNA; actives raise or lower the signal
Procedure: ATG_CIS is a cell-based, multiplexed-readout assay that uses HepG2, a human liver cell line, with measurements taken at 24 hours after chemical dosing in a 24-well plate.ATG_Oct_MLP_CIS is one of 52 assay component(s) measured or calculated from the ATG_CIS assay. […] This assay endpoint, ATG_Oct_MLP_CIS, was analyzed with bidirectional fitting relative to DMSO as the negative control and baseline of activity. […]
Active and inactive are the calls of the source. The calls were made as follows: active = hit-call score of the fitted dose curve at least 0.9, where 1 is the maximum; inactive = score below 0.9.
Write down the outcome that applies. Available outcomes: active, inactive

For orientation, consider the following solved cases.
1. CC(=O)C=C(C)C : inactive
2. CC(C)c1ccc(CO)cc1 : inactive
3. OCC(O)CCl (stereo not given) : inactive
4. ClCCBr : inactive
5. COC(=O)c1sccc1S(=O)(=O)NC(=O)Nc1nc(C)nc(OC)n1 : inactive

input: # outcome recorded in this test, key = `COP(=O)(OC)O/C(=C\Cl)c1cc(Cl)c(Cl)cc1Cl`
output: active

input: # outcome recorded in this test, key = `CC(C)CCCCCCOC(=O)c1ccccc1C(=O)OCCCCCCC(C)C`
output: inactive

input: # outcome recorded in this test, key = `O=C1CCCN1`
output: inactive

input: # outcome recorded in this test, key = `O=C/C=C/c1ccccc1`
output: inactive

input: # outcome recorded in this test, key = `COP(=S)(OC)Oc1ccc(S(=O)(=O)N(C)C)cc1`
output: inactive

input: # outcome recorded in this test, key = `N#Cc1ccccn1`
output: inactive

input: # outcome recorded in this test, key = `Cn1sc(Cl)cc1=O`
output: inactive

input: # outcome recorded in this test, key = `CC(=O)c1cc(C(C)(C)C)cc2c1CCC2(C)C`
output: active

input: # outcome recorded in this test, key = `O=C(Cl)c1ccc(Cl)cc1`
output: inactive

input: # outcome recorded in this test, key = CC(C)(c1ccc(OCC2CO2)cc1)c1ccc(OCC2CO2)cc1 (stereo not given)
output: active

----------
Read-out: Cyclin Dependent Kinase Inhibitor 1A (CDKN1A), CDKN1A (gene 1026)
Test: LTEA_HepaRG_CDKN1A: Life Technologies and Expression Analysis (LTEA) Assay for Cyclin Dependent Kinase Inhibitor 1A (CDKN1A) using HepaRG (AID 2283450)
Settings: mRNA level, 48 h; actives raise or lower the signal
Calls of active or inactive are those of the source. The calls were made as follows: active = hit-call score of the fitted dose curve at least 0.9, where 1 is the maximum; inactive = score below 0.9.
Write down the outcome that applies. Available outcomes: active, inactive

For orientation, consider the following solved cases.
1. Cn1sc(Cl)cc1=O : inactive
2. CCC(C)(C)c1ccc(O)c(C(C)(C)CC)c1 : inactive
3. O=[N+]([O-])c1ccc(O)c([N+](=O)[O-])c1 : active
4. CC12CC1(C)C(=O)N(c1cc(Cl)cc(Cl)c1)C2=O (stereo not given) : inactive

input: # outcome recorded in this test, key = `CC(C)(C)CC(C)(C)c1ccc(O)cc1`
output: inactive

input: # outcome recorded in this test, key = `CCOP(=S)(OCC)Oc1nc(Cl)c(Cl)cc1Cl`
output: inactive

input: # outcome recorded in this test, key = `Oc1cccc2cccnc12`
output: inactive

input: # outcome recorded in this test, key = `O=C(O)C(Cl)(Cl)Cl`
output: inactive

input: # outcome recorded in this test, key = `CC(C)(C)c1cc(O)ccc1O`
output: inactive

input: # outcome recorded in this test, key = `O=C(Nc1ccc2[nH]ccc2c1)c1cc2cc(F)ccc2n1Cc1cccc(F)c1`
output: inactive

input: # outcome recorded in this test, key = `O=C(O)C(F)(F)C(F)(F)C(F)(F)C(F)(F)C(F)(F)C(F)(F)F`
output: inactive

input: # outcome recorded in this test, key = `C[C@@H]1C[C@@H]([C@H](O)CC2CC(=O)NC(=O)C2)C(=O)[C@@H](C)C1`
output: active

----------
Assay: ATG_NFI_CIS: Attagene CIS-FACTORIAL HepG2 Assay for human Nuclear Factor I (NFI) (AID 2282989)
Conditions: HepG2 cis-regulatory reporter, NFI response element transcription; actives raise or lower the signal
Active and inactive are the calls of the source. The calls were made as follows: active = hit-call score of the fitted dose curve at least 0.9, where 1 is the maximum; inactive = score below 0.9.
Write down the outcome that applies. Available outcomes: label 1 for active, label 0 for inactive

For orientation, consider the following solved cases.
1) COc1ccc(C=O)cc1OC : label 0
2) OCC(O)CCl (stereo not drawn) : label 0
3) O=[N+]([O-])c1c(Cl)c(Cl)cc(Cl)c1Cl : label 0

# next molecule below
input: # outcome recorded in this test, key = `CCC[CH2][Sn]([Cl])([Cl])[Cl]`
output: label 0

----------
Assay: CCTE_Shafer_MEA_acute_burst_duration_mean: CCTE's Neural Acute Assay for Mean Burst Duration, Shafer Lab (AID 2284014);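 further: hits are decreases in mean burst duration relative to DMSO controls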
Activity calls are given as the source filed them. Rule for the calls: active = hit-call score of the fitted dose curve at least 0.9, where 1 is the maximum; inactive = score below 0.9.
Write down the outcome that applies. Available outcomes: active, inactive

For orientation, consider the following solved cases.
1) CCC(=O)C(CC(C)N(C)C)(c1ccccc1)c1ccccc1 (stereo not drawn) : active
2) O=C1C2(Cl)C3(Cl)C4(Cl)C(Cl)(Cl)C5(Cl)C3(Cl)C1(Cl)C5(Cl)C24Cl (stereo not drawn) : active
3) ClC1(Cl)C2(Cl)C3(Cl)C4(Cl)C(Cl)(Cl)C5(Cl)C3(Cl)C1(Cl)C5(Cl)C24Cl (stereo not drawn) : inactive
4) CC(=O)[O][Hg][c]1ccccc1 : active
5) C=C(C)C(=O)[O][Sn]([CH2]CCC)([CH2]CCC)[CH2]CCC : active

input: # outcome recorded in this test, key = `CC(C)(C)c1cc(O)ccc1O`
output: inactive

input: # outcome recorded in this test, key = `CCN1CCC2(CC1)COc1cc3c(cc12)N(C(=O)c1ccc(-c2ccc(-c4nnc(C)o4)cc2C)cc1)CC3`
output: inactive

input: # outcome recorded in this test, key = `CCC(C)(C)c1ccc(O)c(C(C)(C)CC)c1`
output: inactive

input: # outcome recorded in this test, key = `CC(C)(OO)c1ccccc1`
output: inactive

input: # outcome recorded in this test, key = `CCCCCCCCc1ccc(O)cc1`
output: inactive

input: # outcome recorded in this test, key = `CC(C)(C)CC(C)(C)c1ccc(O)cc1`
output: inactive

input: # outcome recorded in this test, key = `COC(=O)Cc1ccccc1`
output: inactive

input: # outcome recorded in this test, key = CC(=O)OC(c1ccccc1)C(Cl)(Cl)Cl (stereo not drawn)
output: inactive

meta.source: PubChem BioAssay (EPA / NIEHS)
